Hi there, I'd appreciate the recorded pKi for every entry that follows.
# subject-of-test: UniProtKB P11309
# Sequence (P11309 whole entry): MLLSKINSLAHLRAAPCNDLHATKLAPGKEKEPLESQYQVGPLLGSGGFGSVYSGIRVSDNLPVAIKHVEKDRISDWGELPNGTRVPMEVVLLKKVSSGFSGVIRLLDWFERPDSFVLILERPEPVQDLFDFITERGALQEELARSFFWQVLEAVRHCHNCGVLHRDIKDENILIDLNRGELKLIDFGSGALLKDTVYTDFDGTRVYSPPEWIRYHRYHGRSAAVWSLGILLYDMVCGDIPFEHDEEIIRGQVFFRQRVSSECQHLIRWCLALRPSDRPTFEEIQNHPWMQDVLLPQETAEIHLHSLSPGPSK
# experimental-details: biochemical
# Format: biochemical
# stated-conditions: 20 pM PIM1, 1 μM FAM-peptide, 10 μM ATP, 90 minutes at room temperature; read-out: PIM1 LC3K (KI)
Just so you know, pKi here is -log10 of the concentration in molar units; reply with that number alone.

*Q* Any idea what pKi came out for Cn1ncc(NC(=O)c2csc(-c3n[nH]c4c3CCC(C)(C)C4)n2)c1[C@@H]1CC[C@@H](N)[C@H](F)CO1 on UniProtKB P11309?
*A* 11.05

*Q* Any idea what pKi came out for Cc1cc(F)c(-c2nc(C(=O)Nc3cnn(C)c3[C@@H]3CC[C@@H](N)[C@H](F)CO3)ccc2F)c(F)c1 on UniProtKB P11309?
*A* 10.39

*Q* Any idea what pKi came out for Cc1c(-c2nc(C(=O)Nc3cnn(C)c3[C@@H]3CC[C@@H](N)[C@H](F)CO3)cs2)cnn1C on UniProtKB P11309?
*A* 9.66

*Q* Any idea what pKi came out for COc1ccc(-c2nc(C(=O)Nc3cnn(C)c3[C@@H]3CC[C@@H](N)[C@@H](F)CO3)cs2)c(F)c1 on UniProtKB P11309?
*A* 10.28

*Q* Any idea what pKi came out for Cc1cccc(-c2nc(C(=O)Nc3cnn(C)c3[C@@H]3CC[C@@H](N)[C@H](F)CO3)cs2)c1F on UniProtKB P11309?
*A* 10.17

*Q* Any idea what pKi came out for Cn1ncc(NC(=O)c2csc(-c3c(F)cc(C4CCOC4)cc3F)n2)c1[C@@H]1CC[C@@H](N)[C@H](F)CO1 (stereo partly shown) on UniProtKB P11309?
*A* 10.96

*Q* Any idea what pKi came out for CO[C@H]1CO[C@H](c2c(NC(=O)c3nc(-c4cc(F)cc(F)c4F)sc3N)cnn2C)CC[C@H]1N on UniProtKB P11309?
*A* 9.90
